Assay Target: Epidermal growth factor receptor (Homo sapiens)
Sequence (P00533 whole entry): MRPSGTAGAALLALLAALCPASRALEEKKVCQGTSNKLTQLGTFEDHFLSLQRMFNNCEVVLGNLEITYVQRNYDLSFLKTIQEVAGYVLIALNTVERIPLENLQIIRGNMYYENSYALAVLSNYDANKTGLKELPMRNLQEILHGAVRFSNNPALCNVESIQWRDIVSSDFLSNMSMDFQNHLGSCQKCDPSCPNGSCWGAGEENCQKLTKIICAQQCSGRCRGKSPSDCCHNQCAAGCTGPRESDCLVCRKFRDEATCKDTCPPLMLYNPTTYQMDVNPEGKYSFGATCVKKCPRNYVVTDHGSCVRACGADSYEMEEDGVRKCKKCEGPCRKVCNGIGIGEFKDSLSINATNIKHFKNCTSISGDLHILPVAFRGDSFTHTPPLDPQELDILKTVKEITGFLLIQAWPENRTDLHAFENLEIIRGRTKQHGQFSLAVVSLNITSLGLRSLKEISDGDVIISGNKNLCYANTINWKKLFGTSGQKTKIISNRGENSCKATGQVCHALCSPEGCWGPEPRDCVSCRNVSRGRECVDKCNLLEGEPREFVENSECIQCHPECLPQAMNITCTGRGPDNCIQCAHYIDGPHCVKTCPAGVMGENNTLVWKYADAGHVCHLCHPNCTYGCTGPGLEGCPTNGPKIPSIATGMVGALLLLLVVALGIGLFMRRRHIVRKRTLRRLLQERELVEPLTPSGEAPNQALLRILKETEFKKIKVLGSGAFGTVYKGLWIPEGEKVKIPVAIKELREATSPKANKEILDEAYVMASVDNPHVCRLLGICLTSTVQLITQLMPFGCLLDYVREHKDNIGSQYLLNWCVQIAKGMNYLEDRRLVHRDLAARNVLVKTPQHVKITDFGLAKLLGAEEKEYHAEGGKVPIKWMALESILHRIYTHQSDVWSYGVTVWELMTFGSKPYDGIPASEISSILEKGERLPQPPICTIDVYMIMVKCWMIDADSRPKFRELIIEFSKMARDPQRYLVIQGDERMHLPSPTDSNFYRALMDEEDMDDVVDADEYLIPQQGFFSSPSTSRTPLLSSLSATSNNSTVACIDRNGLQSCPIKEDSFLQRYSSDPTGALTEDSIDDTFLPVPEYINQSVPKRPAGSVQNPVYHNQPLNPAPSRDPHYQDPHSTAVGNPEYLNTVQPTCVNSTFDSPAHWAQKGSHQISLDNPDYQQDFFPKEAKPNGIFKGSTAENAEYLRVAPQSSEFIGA
Assay Method Text: Displacement of [125I]-TGFalpha from human EGFR in human A431 cell membrane by SPA
Type: cell membranes, A-431

# Compound, Endpoint Unit, IC50
records = [
    ("CCC(C)/C=C/C(=O)C(=O)/C=C/C=C/C=C/C=C/C=C/C=C/[C@@H]1C[C@@H](O)[C@H](C(=O)O)O1 (stereo partly specified)", "nM", 1600),
]

Source of measurements: ChEMBL document CHEMBL1145687
